# ASSAYED SYSTEM: Protein Rev (Human immunodeficiency virus type 1 group M subtype B (isolate WMJ22))
# TEST METHOD NOTES: disruptors of Rev peptide-RRE RNA complex – biochemical, FRET, protein-RNA interaction, primary screen (AID 704);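 further: 0% = median DMSO wells and 100% = median Neomycin B control wells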
# TEST CONDITIONS: Rev peptide-RRE RNA binding, at 8 µM
About 770 (0.79%) of roughly 97,000 compounds were called active.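 How the source made its calls: active means inhibition above the screen-wide mean plus 3 SD (cut at about 35% in these data); inactive means the rest.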 The full list was thinned out, with actives kept by preference.
Pick one and only one: active, inactive

Exercise: Please let me know the test result on file for COC(=O)C1=C(C)N=C2SC(C)C(=O)N2C1/C=C/c1ccccc1 (stereo unspecified) .
Solution: inactive

Exercise: Please let me know the test result on file for `O=C(/C=C/c1cc2c(cc1Br)OCO2)NCc1ccc(Cl)cc1` .
Solution: inactive

Exercise: Please let me know the test result on file for `CN1/C(=C\C=C2\N=C(c3ccc(F)cc3)OC2=O)C(C)(C)c2ccccc21` .
Solution: active

Exercise: Please let me know the test result on file for `CCN(CC)c1ccc2cc(C(=O)O)c(=O)oc2c1` .
Solution: inactive

Exercise: Please let me know the test result on file for COc1cc(/C=C(\C#N)c2nc3c(s2)CC(C)CC3)ccc1O (stereo unspecified) .
Solution: active

Exercise: Please let me know the test result on file for COc1ccc(CNC(=O)C2CCC(CNc3c(N4CCOCC4)c(=O)c3=O)CC2)cc1 (stereo unspecified) .
Solution: inactive

----------
# ASSAYED SYSTEM: Protein Rev (Human immunodeficiency virus type 1 group M subtype B (isolate WMJ22))
# TEST METHOD NOTES: disruptors of Rev peptide-RRE RNA complex – biochemical, FRET, protein-RNA interaction, primary screen (AID 704);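 further: 0% = median DMSO wells and 100% = median Neomycin B control wells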
# TEST CONDITIONS: Rev peptide-RRE RNA binding, at 8 µM, stronger effect = higher value
The campaign covered roughly 97,000 compounds. About 770 (0.79%) were called active. The sample as a whole holds a higher share of actives than the screen did.
Please go through the items and note down their inhibition.

Exercise: Consider the compound `CCOC(=O)c1cc(NC(=O)c2ccc(Cl)cc2)c(=O)oc1-c1ccccc1` and give its measured inhibition.
Solution: 10.3% (inactive)

Exercise: Consider the compound `CCOC(=O)c1cnn(Cc2ccccc2Cl)c1N` and give its measured inhibition.
Solution: 3.78% (inactive)

Exercise: Consider the compound `COc1cccc(C(=O)Nc2ccc(N3CCCC3)cc2)c1` and give its measured inhibition.
Solution: 9.26% (inactive)

Exercise: Consider the compound `Cc1cccn2c(=O)c(/C=C3\SC(=S)N(CC(C)C)C3=O)c(NCCCOC(C)C)nc12` and give its measured inhibition.
Solution: 73.4% (active)

Exercise: Consider the compound `CCc1nnc(NC(=O)c2cccs2)s1` and give its measured inhibition.
Solution: 7.76% (inactive)

Exercise: Consider the compound `CCCCn1c(=S)[nH]c2cc(S(=O)(=O)N3CCCCC3)ccc21` and give its measured inhibition.
Solution: 1.26% (inactive)

Exercise: Consider the compound `Cc1ccc(-n2c(CNc3ccc(F)cc3)nnc2SCC(=O)N2CCOCC2)cc1` and give its measured inhibition.
Solution: 5.16% (inactive)

Exercise: Consider the compound `COc1cc(N2CCCC2)c(OC)cc1/C=C(/C#N)c1cccc(Br)c1` and give its measured inhibition.
Solution: 115% [fluorescence artefact?] (active)

Exercise: Consider the compound Clc1ccc2c(c1)C1=C(C(c3ccncc3)O2)C(c2ccc(Br)cc2)n2ncnc2N1 (stereo not drawn) and give its measured inhibition.
Solution: -1.15% (inactive)

Exercise: Consider the compound `Cc1[nH]c2ccccc2c1C(=O)COC(=O)C(C)C` and give its measured inhibition.
Solution: 2.32% (inactive)

Exercise: Consider the compound `CCc1nnc(NC(=O)c2nc3nccc(C)n3n2)s1` and give its measured inhibition.
Solution: 12.3% (inactive)

Exercise: Consider the compound `CCOC(=O)c1cc2n(c1C)-c1ccccc1C2=O` and give its measured inhibition.
Solution: 7.43% (inactive)

Exercise: Consider the compound CC(=O)Nc1ccc(OCC(O)CN2CCN(c3ccccc3Cl)CC2)cc1 (stereo not drawn) and give its measured inhibition.
Solution: -0.14% (inactive)

Exercise: Consider the compound `O=C(O)C1CCN(C(=O)OCc2ccccc2)CC1` and give its measured inhibition.
Solution: 2.49% (inactive)

Exercise: Consider the compound `O=S(=O)(N1CCCCC1)N1CCNCC1` and give its measured inhibition.
Solution: 0.92% (inactive)

Exercise: Consider the compound CC(CN1CCOCC1)c1ccccc1 (stereo not drawn) and give its measured inhibition.
Solution: 10.4% (inactive)

Exercise: Consider the compound `COc1ccc(CN(CC(=O)NC2CCCC2)C(=O)CCC(=O)Nc2cc(C)on2)cc1` and give its measured inhibition.
Solution: -2.37% (inactive)

Exercise: Consider the compound `N#Cc1c(N)n(CCOC(=O)c2ccc(Cl)cc2)c2nc3ccccc3nc12` and give its measured inhibition.
Solution: 7.97% (inactive)

Exercise: Consider the compound `CSc1nc(N(C)NC(=O)c2cccc(C)c2)c2ccccc2n1` and give its measured inhibition.
Solution: 3.84% (inactive)

Exercise: Consider the compound `COC(=O)/C(NC(C)=O)=C(\C)c1ccc(Cl)cc1` and give its measured inhibition.
Solution: 1.2% (inactive)

Exercise: Consider the compound `CCCNC(=O)CN(Cc1ccccc1F)S(=O)(=O)c1ccc(C)cc1` and give its measured inhibition.
Solution: 8.11% (inactive)

Exercise: Consider the compound CC/S(CC1CC1(Cl)Cl)=N\S(=O)(=O)c1ccc(C)cc1 (stereo not drawn) and give its measured inhibition.
Solution: -0.12% (inactive)

Exercise: Consider the compound CCOC(=O)C1=C(C)NC2=C(C(=O)CC(C)(C)C2)C1c1ccsc1 (stereo not drawn) and give its measured inhibition.
Solution: 0.96% (inactive)

Exercise: Consider the compound CCCCCCn1c(CN2CCCC(C)C2)nc2c1c(=O)n(C)c(=O)n2C (stereo not drawn) and give its measured inhibition.
Solution: 7.64% (inactive)

Exercise: Consider the compound `CCOC(=O)c1sc(NC(=O)c2ccncc2)nc1C` and give its measured inhibition.
Solution: 4.33% (inactive)

Exercise: Consider the compound `CC1=NN(Cc2ccccc2)C(=O)/C1=C/c1ccc(N(C)C)cc1` and give its measured inhibition.
Solution: 13.1% (inactive)

Exercise: Consider the compound `CN(C)c1ccc(/C=C2\NC(=S)N(Cc3ccccc3)C2=O)cc1` and give its measured inhibition.
Solution: 136% [fluorescence artefact?] (active)

Exercise: Consider the compound `Cc1cc(C)cc(OCC(=O)NNC(=O)c2cc3ccccc3oc2=O)c1` and give its measured inhibition.
Solution: 3.32% (inactive)

Exercise: Consider the compound `Cc1nn(C)c(Oc2ccccc2)c1[N+](=O)[O-]` and give its measured inhibition.
Solution: 4.97% (inactive)

Exercise: Consider the compound `O=C(c1ccc2c(c1)OCO2)N1CCOCC1` and give its measured inhibition.
Solution: 2.74% (inactive)

Exercise: Consider the compound O=C(O)c1ccccc1NC(=S)NC(NC(=O)c1ccccc1[N+](=O)[O-])C(Cl)(Cl)Cl (stereo not drawn) and give its measured inhibition.
Solution: -3.09% (inactive)

Exercise: Consider the compound `O=C(Nc1nccs1)C1CCN(S(=O)(=O)c2ccc(Cl)c(C(F)(F)F)c2)CC1` and give its measured inhibition.
Solution: 11.3% (inactive)

Exercise: Consider the compound NC1=NC(=O)C2(COC(c3ccccc3Cl)OC2)S1 (stereo not drawn) and give its measured inhibition.
Solution: 1.07% (inactive)

Exercise: Consider the compound `CS(=O)(=O)n1nc(-c2ccccc2)nc1NCc1ccco1` and give its measured inhibition.
Solution: 7.66% (inactive)

Exercise: Consider the compound `COCCCNCC(=O)Nc1sc(C)c(C)c1C(=O)OC` and give its measured inhibition.
Solution: 1.88% (inactive)

Exercise: Consider the compound CC1=NN(c2cccc(Cl)c2)C(=O)C12CC(C)=C(C)CS2 (stereo not drawn) and give its measured inhibition.
Solution: 16.6% (inactive)

Exercise: Consider the compound CCOC(=O)N1CCN(c2c(NCCCN3CCCC(C)C3)c(=O)c2=O)CC1 (stereo not drawn) and give its measured inhibition.
Solution: 1.25% (inactive)

Exercise: Consider the compound `CCCCOC(=O)Cn1c(=O)n(CC(=O)OCCCC)c2cc(C)ccc21` and give its measured inhibition.
Solution: 3.29% (inactive)

Exercise: Consider the compound `Cc1nc(-c2ccccc2)sc1-c1nc(-c2ccccc2)ncc1S(=O)(=O)c1ccccc1` and give its measured inhibition.
Solution: 2.59% (inactive)

Exercise: Consider the compound `CNC(=O)/C(=C\C=C\c1ccccc1)NC(=O)c1ccc([N+](=O)[O-])cc1` and give its measured inhibition.
Solution: 3.26% (inactive)

Exercise: Consider the compound `O=C(Nc1ccccc1-c1nnn(CC(=O)N2CCCc3ccccc32)n1)c1cccc(Cl)c1` and give its measured inhibition.
Solution: 13.6% (inactive)

Exercise: Consider the compound `CCCNC(=O)c1c(N)n(-c2ccc(S(N)(=O)=O)cc2)c2nc3ccccc3nc12` and give its measured inhibition.
Solution: 1.66% (inactive)

Exercise: Consider the compound `COc1ccc(-n2nc(C(=O)NCC(=O)Nc3cccc(C)n3)c3ccccc3c2=O)cc1` and give its measured inhibition.
Solution: 6.83% (inactive)
